- methodNotes: NCI Yeast Anticancer Drug Screen. Data for the mec2-1 strain (AID 157)
- conditions: S. cerevisiae mec2-1 strain, at 50.0 µM (retest, dose inferred, filed as 5.0), hits give high values
Compounds without any hit were thinned out: in the full panel of roughly 79,000, 15% have a hit. The source made the active and inactive calls. Rule as the data show it: active = growth inhibition above about 70%; inactive = the rest.
Documented growth inhibition across a set of compounds

Solved entries (count: 5):
{"compound": "CC(=O)O/N=C/c1c2ccccc2cc2ccccc12", "growth inhibition": "18% (inactive)"}
{"compound": "Cc1ccc(S(=O)(=O)N/N=C/c2c(O)ccc3ccccc23)cc1", "growth inhibition": "79% (active)"}
{"compound": "O=c1oc(C(C(F)(F)F)C(F)(F)F)nc2ccccc12", "growth inhibition": "83% (active)"}
{"compound": "Cc1c(N=Nc2ccc(Cl)cc2)c(C)n(C2OC(CO)C(O)C(O)C2O)c(=S)c1C#N (stereo not drawn)", "growth inhibition": "40% (inactive)"}
{"compound": "COc1ccc2cc(CN3CCC(C4CCN(Cc5ccc6cc(OC)ccc6c5)CC4)CC3)ccc2c1", "growth inhibition": "22% (inactive)"}

Prompt line: Can you share its growth inhibition? I mean this compound: CCCCCCCCCCCC[N+](C)(C)Cc1ccccc1 (tested in a mixture with another compound)
Response line: 100% (active)

Prompt line: Now the compound `CN(NC(=O)/C(=C/C=C/c1ccccc1)NC(=O)c1ccccc1)C1=C(Cl)C(=O)[N+](c2ccccc2)=CC1`
Response line: 2% (inactive)

Prompt line: Now the compound CCCCCCCCCCCCCCCCOCC(Cl)COP(=O)(O)OP(=O)(O)OCC1OC(n2cnc3c(N)ncnc32)C(O)C1O (stereo not drawn)
Response line: 73% (active)
